B1: LINE1-full (parent)
chain: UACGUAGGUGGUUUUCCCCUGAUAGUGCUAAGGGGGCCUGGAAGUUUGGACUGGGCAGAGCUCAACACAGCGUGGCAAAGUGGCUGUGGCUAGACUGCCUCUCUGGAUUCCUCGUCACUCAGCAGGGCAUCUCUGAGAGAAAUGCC

# Variants of: B1
# protocolDescription: self-cleavage, relative activity (ratio to wild type); higher = more cleavage; in vitro, sequencing; the parent is a self-cleaving ribozyme
Decide using self-cleavage: a value greater than or equal to 0.9 is Criterion met, a smaller one is Criterion not met.

> print(dat)
     variantkey      discretelabel
 1  A107C U130C  Criterion not met
 2    A57G C66U  Criterion not met
 3   U20C C128U      Criterion met
 4   A65G U119G  Criterion not met
 5  C120U A124G      Criterion met
 6    A6G U134A  Criterion not met
 7     U5C A43U      Criterion met
 8    U26A U29C      Criterion met
 9    A31G A77U  Criterion not met
10    A43C A65G  Criterion not met
11    G35C U46C      Criterion met
